- assayed system: EGFR (Homo sapiens, UniProt P00533, DEL746-750)
- Construct: endogenous in cells; host or cells: HCC827
- Sequence (P00533 with tags, fused parts or gaps DEL746-750): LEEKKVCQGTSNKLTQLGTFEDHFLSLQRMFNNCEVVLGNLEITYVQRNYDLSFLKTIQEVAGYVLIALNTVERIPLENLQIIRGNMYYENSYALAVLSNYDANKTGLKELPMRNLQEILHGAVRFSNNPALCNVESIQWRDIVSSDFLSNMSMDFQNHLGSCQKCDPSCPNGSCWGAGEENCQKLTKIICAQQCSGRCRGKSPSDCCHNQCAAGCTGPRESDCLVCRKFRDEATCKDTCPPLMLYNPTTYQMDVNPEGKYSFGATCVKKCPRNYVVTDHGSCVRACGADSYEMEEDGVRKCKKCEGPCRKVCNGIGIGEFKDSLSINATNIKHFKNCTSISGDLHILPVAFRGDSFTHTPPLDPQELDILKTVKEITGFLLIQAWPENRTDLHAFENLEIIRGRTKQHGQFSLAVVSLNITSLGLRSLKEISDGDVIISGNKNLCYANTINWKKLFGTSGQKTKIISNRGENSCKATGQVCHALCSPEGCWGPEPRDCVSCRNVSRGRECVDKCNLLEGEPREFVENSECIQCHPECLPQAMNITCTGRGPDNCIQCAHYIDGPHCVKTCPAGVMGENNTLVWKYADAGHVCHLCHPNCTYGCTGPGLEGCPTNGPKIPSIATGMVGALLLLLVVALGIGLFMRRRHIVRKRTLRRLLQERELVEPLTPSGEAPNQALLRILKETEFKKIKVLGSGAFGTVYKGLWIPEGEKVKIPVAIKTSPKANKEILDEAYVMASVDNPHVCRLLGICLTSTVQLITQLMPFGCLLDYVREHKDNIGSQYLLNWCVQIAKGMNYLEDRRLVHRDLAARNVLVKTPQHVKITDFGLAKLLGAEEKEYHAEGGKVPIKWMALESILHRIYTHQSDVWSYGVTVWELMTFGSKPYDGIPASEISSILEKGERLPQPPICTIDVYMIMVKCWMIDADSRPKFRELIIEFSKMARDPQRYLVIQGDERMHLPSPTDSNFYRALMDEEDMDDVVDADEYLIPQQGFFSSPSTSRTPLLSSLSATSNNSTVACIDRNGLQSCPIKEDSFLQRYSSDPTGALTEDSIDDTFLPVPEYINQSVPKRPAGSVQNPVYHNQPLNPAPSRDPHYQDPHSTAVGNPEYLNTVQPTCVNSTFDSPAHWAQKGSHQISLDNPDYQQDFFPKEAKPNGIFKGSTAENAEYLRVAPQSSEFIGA
- Sequence (Q96SW2 whole entry partner): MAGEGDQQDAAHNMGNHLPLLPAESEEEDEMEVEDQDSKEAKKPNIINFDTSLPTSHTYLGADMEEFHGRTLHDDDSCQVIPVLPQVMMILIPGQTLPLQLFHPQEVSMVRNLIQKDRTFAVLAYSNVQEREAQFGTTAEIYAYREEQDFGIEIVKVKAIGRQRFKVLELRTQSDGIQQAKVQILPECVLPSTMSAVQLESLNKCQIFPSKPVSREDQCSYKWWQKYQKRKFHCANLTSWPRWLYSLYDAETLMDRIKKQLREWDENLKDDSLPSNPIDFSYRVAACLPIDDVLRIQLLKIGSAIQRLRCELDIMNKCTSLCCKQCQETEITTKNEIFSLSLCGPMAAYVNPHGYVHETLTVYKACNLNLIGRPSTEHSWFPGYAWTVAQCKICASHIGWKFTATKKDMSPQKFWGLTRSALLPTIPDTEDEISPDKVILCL
- test details: Cell Degradation 2: EGFR degradation in HCC827 cells, HTRF assay
- Assay type: cell-based
- details: 16 h treatment, EGFR degradation by HTRF
Kindly apply the following: YES if DC50 is less than 20 nM, NO in every other case.

compound | class label
CN(CCC1CCN(c2ccc(C3CCC(=O)NC3=O)c(F)c2)CC1)C1CCN(c2ccc(Nc3ncc(Cl)c(Nc4cccc5c4N(S(C)(=O)=O)CC5)n3)c3c2CCO3)CC1 (centres unmarked) | NO
CS(=O)(=O)N1CCc2cccc(Nc3nc(Nc4ccc(N5CCC(N6CCN(CCC7CCN(c8ccc(C9CCC(=O)NC9=O)c(F)c8)CC7)CC6)CC5)c(F)c4)nc4[nH]ccc34)c21 (centres unmarked) | YES
CS(=O)(=O)N1CCc2cccc(Nc3nc(Nc4ccc(N5CCC(N6CCN(CC[C@H]7CCN(c8ccc(C9CCC(=O)NC9=O)cc8)C7)CC6)CC5)c(F)c4)nc4[nH]ccc34)c21 (some centres unmarked) | NO
CS(=O)(=O)N1CCc2cccc(Nc3nc(Nc4ccc(N5CCC(N6CCN(C(=O)C7CCN(CC8CCN(c9ccc%10c(c9)C(=O)N(C9CCC(=O)NC9=O)C%10=O)CC8)CC7)CC6)CC5)c(F)c4)nc4[nH]ccc34)c21 (centres unmarked) | NO
CS(=O)(=O)N1CCc2cccc(Nc3nc(Nc4ccc(N5CCC(N6CCN(CC7CN(c8ccc9c(c8)C(=O)N(C8CCC(=O)NC8=O)C9=O)C7)CC6)CC5)c(F)c4)nc4[nH]ccc34)c21 (centres unmarked) | YES
